Biological target: HLA-A*02:01
Experiment: IEDB peptide-MHC binding, purified MHC/competitive/fluorescence; filed as Kd, often an IC50 or EC50 that approximates it; bounds were set here for any values at or beyond the usual limits of such assays
Details: source organism: Sudan ebolavirus
pKd: −log10 of the molar value.
assay.endpoint: pKd

I'd like to know its pKd. The sequence in question is YTENTSSYY
≤ 4.70

* * *

Target: HLA-A*11:01
Experiment: IEDB peptide-MHC binding, purified MHC/competitive/radioactivity; filed as Kd, often an IC50 or EC50 that approximates it; bounds were set here for any values at or beyond the usual limits of such assays
Conditions: source organism: Mammarenavirus machupoense
Collected Kd values appear next to each entry.
Numbers only here, please. The scale is µM.

Sample records with Kd:
# seq, system.tested, Kd (µM)
measured = [
    ("YCSTNHLSK", "HLA-A*11:01", 14.9),
    ("LNNSFYYMK", "HLA-A*11:01", 0.619),
    ("STSLSEEFFH", "HLA-A*11:01", 4.31),
]

Next, consider the following sequence.
# query: Kd | item SSFDYCGMDH | system: HLA-A*11:01
6.58

* * *

Molecular target: HLA-B*15:42
Experiment: IEDB peptide-MHC binding, purified MHC/competitive/fluorescence; filed as Kd, often an IC50 or EC50 that approximates it; bounds were set here for any values at or beyond the usual limits of such assays
Settings: source organism: Burkholderia pseudomallei 406e
pKd: −log10 of the molar value.
assay.endpoint: pKd

I'd like to know its pKd. The sequence in question is MSWGWRLPF
≤ 5.30

* * *

Target: HLA-B*44:03
Assay: IEDB peptide-MHC binding, purified MHC/competitive/radioactivity; filed as Kd, often an IC50 or EC50 that approximates it; bounds were set here for any values at or beyond the usual limits of such assays
Settings: source organism: Dengue virus 3 Martinique/1243/1999
assay.endpoint: Kd (nM)
Numbers only here, please. The scale is nM.

Sample records with Kd:
# seq, readout.unit, Kd
rows = [
    ("RETACLGKAY", "nM", 17.9),
    ("GEIGAIALD", "nM", 907),
]

Next, consider the following sequence.
I'd like to know its Kd. The sequence in question is MEDKTPVTTW
180

* * *

Collected pKd values appear next to each entry.
Target: HLA-A*01:01
Assay: IEDB peptide-MHC binding, purified MHC/direct/fluorescence; filed as Kd, often an IC50 or EC50 that approximates it; bounds were set here for any values at or beyond the usual limits of such assays
Conditions: source organism: Camelpox virus M-96
pKd: −log10 of the molar value.

# seq, assay.endpoint, measurement
records = [
    ("YQYIFLSFF", "pKd", "≤ 4.70"),
]

Next, consider the following sequence.
I'd like to know its pKd. The sequence in question is TESDAIRTL
≤ 4.70

* * *

Biological target: HLA-A*02:01
Assay: IEDB peptide-MHC binding, purified MHC/competitive/fluorescence; filed as Kd, often an IC50 or EC50 that approximates it; bounds were set here for any values at or beyond the usual limits of such assays
Settings: source organism: Giardia lamblia ATCC 50803
pKd: −log10 of the molar value.
assay.endpoint: pKd

I'd like to know its pKd. The sequence in question is ELRKRNEAL
≤ 4.70

* * *

Target: HLA-A*03:01
Test: IEDB peptide-MHC binding, purified MHC/competitive/fluorescence; bounds were set here for any values at or beyond the usual limits of such assays
Conditions: source organism: Vaccinia virus
assay.endpoint: IC50

I'd like to know its IC50. The sequence in question is KSSKYYIKN
≥ 1.83 mM

* * *

Target: HLA-A*69:01
Assay: IEDB peptide-MHC binding, purified MHC/direct/fluorescence; filed as Kd, often an IC50 or EC50 that approximates it; bounds were set here for any values at or beyond the usual limits of such assays
Conditions: source organism: Marburg virus - Musoke, Kenya, 1980
assay.endpoint: Kd (µM)
Numbers only here, please. The scale is µM.

I'd like to know its Kd. The sequence in question is MLAKYDHLV
0.104

* * *

Target: HLA-A*11:01
Assay: IEDB peptide-MHC binding, purified MHC/competitive/fluorescence; bounds were set here for any values at or beyond the usual limits of such assays
Settings: source organism: Zaire ebolavirus
Collected pIC50 values appear next to each entry.
Worth noting: pIC50 values are minus log10 of concentrations stated in mol/L.

# seq, pIC50
data = [
    ("GGQQKNSQK", 5.80),
    ("ATDVPSATK", 5.67),
    ("SRFTPQFLL", 4.34),
    ("ATTELRTFS", 4.95),
    ("THNTPVYKL", 4.21),
    ("KAENTNTSK", 4.45),
]

I'd like to know its pIC50. The sequence in question is LTYVQLESR
5.79

And AMVTLRKER ?
4.53

And KVQRQIQVH ?
4.80

* * *

Molecular target: HLA-B*08:01
Assay: IEDB peptide-MHC binding, purified MHC/competitive/radioactivity; filed as Kd, often an IC50 or EC50 that approximates it; bounds were set here for any values at or beyond the usual limits of such assays
Details: source organism: Dengue virus 4 Dominica/814669/1981
assay.endpoint: Kd (µM)
Numbers only here, please. The scale is µM.

I'd like to know its Kd. The sequence in question is TKTTAKEVAL
4

* * *

Molecular target: HLA-C*05:01
Experiment: IEDB peptide-MHC binding, purified MHC/direct/fluorescence; filed as Kd, often an IC50 or EC50 that approximates it; bounds were set here for any values at or beyond the usual limits of such assays
Details: source organism: Influenza A virus (A/California/04/2009(H1N1))
assay.endpoint: Kd

I'd like to know its Kd. The sequence in question is MTIGMANLI
≥ 20 µM

* * *

Target: HLA-A*03:01
Assay: IEDB peptide-MHC binding, purified MHC/direct/fluorescence; filed as Kd, often an IC50 or EC50 that approximates it; bounds were set here for any values at or beyond the usual limits of such assays
Settings: source organism: Haemophilus influenzae
assay.endpoint: pKd
Worth noting: pKd values are minus log10 of concentrations stated in mol/L.

I'd like to know its pKd. The sequence in question is RMGVKSQLL
4.74

* * *

Target: HLA-A*80:01
Assay: IEDB peptide-MHC binding, purified MHC/competitive/fluorescence; filed as Kd, often an IC50 or EC50 that approximates it; bounds were set here for any values at or beyond the usual limits of such assays
Conditions: source organism: Plesiomonas shigelloides
assay.endpoint: Kd (nM)
Numbers only here, please. The scale is nM.

# query: Kd | item LLFRMILNY | system: HLA-A*80:01
25.9

* * *

Molecular target: HLA-A*11:01
Assay: IEDB peptide-MHC binding, purified MHC/competitive/radioactivity; filed as Kd, often an IC50 or EC50 that approximates it; bounds were set here for any values at or beyond the usual limits of such assays
Details: source organism: Lymphocytic choriomeningitis virus (strain WE)
assay.endpoint: Kd (nM)
Numbers only here, please. The scale is nM.

I'd like to know its Kd. The sequence in question is SRILFAQEK
773

* * *

Target: HLA-B*44:03
Assay: IEDB peptide-MHC binding, purified MHC/competitive/radioactivity; filed as Kd, often an IC50 or EC50 that approximates it; bounds were set here for any values at or beyond the usual limits of such assays
Conditions: source organism: Mammarenavirus juninense
assay.endpoint: Kd (nM)
Numbers only here, please. The scale is nM.

I'd like to know its Kd. The sequence in question is AETGSQGVY
228

* * *

Biological target: HLA-B*44:02
Assay: IEDB peptide-MHC binding, purified MHC/competitive/fluorescence; filed as Kd, often an IC50 or EC50 that approximates it; bounds were set here for any values at or beyond the usual limits of such assays
Conditions: source organism: Giardia lamblia ATCC 50803
assay.endpoint: Kd

I'd like to know its Kd. The sequence in question is MTYLDGHPV
≥ 5 µM

* * *

Target: HLA-A*01:01
Experiment: IEDB peptide-MHC binding, purified MHC/direct/fluorescence; filed as Kd, often an IC50 or EC50 that approximates it; bounds were set here for any values at or beyond the usual limits of such assays
Details: source organism: Giardia lamblia ATCC 50803
pKd: −log10 of the molar value.
assay.endpoint: pKd

Sample records with pKd:
# seq, measurement
data = [
    ("VYAYPSGEK", "≤ 4.70"),
    ("YQYGDNLIL", "≤ 4.70"),
    ("MIYELCTFR", "≤ 4.70"),
]

Next, consider the following sequence.
# query: pKd | item YTDDYPMYK | system: HLA-A*01:01
7.72

* * *

Target: HLA-B*48:01
Experiment: IEDB peptide-MHC binding, purified MHC/direct/fluorescence; filed as Kd, often an IC50 or EC50 that approximates it; bounds were set here for any values at or beyond the usual limits of such assays
Details: source organism: Mycobacterium tuberculosis
pKd: −log10 of the molar value.
assay.endpoint: pKd

I'd like to know its pKd. The sequence in question is VPRENATAF
≤ 4.70

Values from the Immune Epitope Database (IEDB)
